Hello, the source for this data is patent US6290974A, in case you need it.

Target: β-lactoglobulin (β-Lg) (Bos taurus, UniProt P02754)
Construct: Isolation of β-Lg from Whey; from tissue; host or cells: whey (milk), purified by bioselective adsorption on N-retinyl-Celite
Assay: Fluorescence titration of β-Lg with ligands (Equation [1]; Kd and n)
Type: binding
Settings: Kd, Table 2, β-Lg titration as in Example 3
Protocol: Fluorescence spectra were recorded at 23 ° C. with a System 3 Scanning Spectrofluorometer (Optical Technology Devices, Inc., Elmsford, N.Y.) using the ratio mode. […] Titration of β-Lg with the various ligands was quantified by measuring the fluorescence quenching of the protein tryptophanyl residues (excitation at 287 nm, emission measured at 332 nm). […]
Field: pKd. Provide a value for each of the compounds that follow.
// pKd is dimensionless: -log10 of concentration (M)

Request: Given the entry C=C1CC[C@H](O)C/C1=C/C=C1\CCC[C@]2(C)[C@@H]([C@H](C)CCCC(C)C)CC[C@@H]12 , report its measured pKd.
Response: 7.44

Request: Can you share its pKd? I mean this compound: Cc1c(C)c2c(c(C)c1O)CCC(C)(CCCC(C)CCCC(C)CCCC(C)C)O2 (centres unmarked)
Response: 7.04

Request: For CCCCCCCCCCCCCCCC(=O)O , what is its reported pKd?
Response: 6.31

Request: Field request: pKd | item: CC1=C(/C=C/C(C)=C/C=C/C(C)=C/C(=O)O)C(C)(C)CCC1
Response: 7.77

Request: What does the data say about its pKd? Entry: CC(C)CCC[C@@H](C)[C@H]1CC[C@H]2[C@@H]3CC=C4C[C@@H](O)CC[C@]4(C)[C@H]3CC[C@]12C
Response: 7.46

---

Assign Kd to each entry below.
Target: β-lactoglobulin (β-Lg) (Bos taurus, UniProt P02754)
Construct: Isolation of β-Lg from Whey; from tissue; host or cells: whey (milk), purified by bioselective adsorption on N-retinyl-Celite
Sequence (P02754 17-178): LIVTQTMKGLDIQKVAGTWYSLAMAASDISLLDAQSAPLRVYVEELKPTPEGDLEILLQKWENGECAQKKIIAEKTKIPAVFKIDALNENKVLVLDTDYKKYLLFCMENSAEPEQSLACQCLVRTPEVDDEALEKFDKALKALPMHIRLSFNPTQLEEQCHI
Experiment: Fluorescence titration of β-Lg with ligands (Equation [1]; Kd and n)
Type: binding
Conditions: 1 μM β-Lg, 50 mM phosphate pH 7.0, 23 °C; triplicate titrations (vitamin D2: five; ergosterol: single); read-out: Kd (apparent dissociation constant), Table 1
Express your answer in nM, writing the number without its unit.

Request: Name the recorded Kd for C=C1CC[C@H](O)C/C1=C/C=C1\CCC[C@]2(C)[C@@H]([C@H](C)/C=C/[C@H](C)C(C)C)CC[C@@H]12 [Vitamin D2, ergocalciferol] .
Response: 4.91

Request: State the recorded Kd for this entry: CC(C)[C@@H](C)/C=C/[C@@H](C)[C@H]1CC[C@H]2C3=CC=C4C[C@@H](O)CC[C@]4(C)[C@H]3CC[C@]12C [Ergosterol, ergosterol]
Response: 6.25

---

molecular target: β-lactoglobulin (β-Lg) (Bos taurus); construct: Isolation of β-Lg from Whey; from tissue; host or cells: whey (milk), purified by bioselective adsorption on N-retinyl-Celite; assay: Fluorescence titration of β-Lg with linoleic acid, conjugated linoleic acid and its methyl ester (Trp19 enhancement); format: binding; conditions: pH 7, 27 °C, 10 μM β-Lg; enhancement at 332 nm, excitation 287 nm; read-out: Kd, Table 3
metric-name: pKd
The read-out pKd is expressed as -log10 of concentration in moles per litre.

Request: Kindly state the measured pKd obtained for CCCCC/C=C\C/C=C\CCCCCCCC(=O)O with β-lactoglobulin (β-Lg) (Bos taurus).
Response: 6.84

---

Would you mind telling me the reported n (number of binding sites per molecule of protein), Table 1 of each entry?
target: β-lactoglobulin (β-Lg) (Bos taurus); construct: Isolation of β-Lg from Whey; from tissue; host or cells: whey (milk), purified by bioselective adsorption on N-retinyl-Celite; test: Fluorescence titration of β-Lg with ligands (Equation [1]; Kd and n); type: binding; conditions: 1 μM β-Lg, 50 mM phosphate pH 7.0, 23 °C; triplicate titrations (vitamin D2: five; ergosterol: single)
Structures can show the parent of a compound that is named as a salt.

Request: For CC(C)CCC[C@@H](C)[C@H]1CC[C@H]2C3=CC=C4C[C@@H](O)CC[C@]4(C)[C@H]3CC[C@]12C [7-Dehydrocholesterol, 7-dehydrocholesterol] , what is its reported n (number of binding sites per molecule of protein), Table 1?
Response: 1.65 mol/mol of protein

Request: Look up n (number of binding sites per molecule of protein), Table 1 for this molecule: CC(C)[C@@H](C)/C=C/[C@@H](C)[C@H]1CC[C@H]2C3=CC=C4C[C@@H](O)CC[C@]4(C)[C@H]3CC[C@]12C
Response: 2.02 mol/mol of protein

Request: Given the molecule C=C1CC[C@H](O)C/C1=C/C=C1\CCC[C@]2(C)[C@@H]([C@H](C)/C=C/[C@H](C)C(C)C)CC[C@@H]12 [Vitamin D2, ergocalciferol] , what is its reported n (number of binding sites per molecule of protein), Table 1?
Response: 2.00 mol/mol of protein

Request: Returns the measured n (number of binding sites per molecule of protein), Table 1 for the input molecule. Input: CC(C)CCC[C@@H](C)[C@H]1CC[C@H]2[C@@H]3CC=C4C[C@@H](O)CC[C@]4(C)[C@H]3CC[C@]12C
Response: 2.36 mol/mol of protein

Request: Endpoint output: n (number of binding sites per molecule of protein), Table 1 of C=C1CC[C@H](O)C/C1=C/C=C1\CCC[C@]2(C)[C@@H]([C@H](C)CCCC(C)C)CC[C@@H]12 . Value?
Response: 2.01 mol/mol of protein

Request: Given the entry C=C1CC[C@H](OS(=O)(=O)O)C/C1=C/C=C1\CCC[C@]2(C)[C@@H]([C@H](C)CCCC(C)C)CC[C@@H]12 [Vitamin D3 sulfate, vitamin D3 sulfate] , report its measured n (number of binding sites per molecule of protein), Table 1.
Response: 1.74 mol/mol of protein

---

Would you mind telling me the reported pKd of each entry?
target: β-lactoglobulin (β-Lg) (Bos taurus); construct: Isolation of β-Lg from Whey; from tissue; host or cells: whey (milk), purified by bioselective adsorption on N-retinyl-Celite; experiment: Fluorescence titration of β-Lg with ligands (Equation [1]; Kd and n); format: binding; settings: β-Lg titration as in Example 3; read-out: Kd, Table 2
The scale used: pKd is minus the common logarithm of the concentration in molar units.

Request: // pKd lookup, key: C=C1CC[C@H](O)C/C1=C/C=C1\CCC[C@]2(C)[C@@H]([C@H](C)/C=C/[C@H](C)C(C)C)CC[C@@H]12 [Vitamin D2, ergocalciferol]
Response: 8.31

Request: Which pKd is listed for CC1=C(C/C=C(\C)CCC[C@H](C)CCC[C@H](C)CCCC(C)C)C(=O)c2ccccc2C1=O ?
Response: 7.05

---

biological target: β-lactoglobulin (β-Lg) (Bos taurus, UniProt P02754); construct: Isolation of β-Lg from Whey; from tissue; host or cells: whey (milk), purified by bioselective adsorption on N-retinyl-Celite; assay: Fluorescence titration of β-Lg with ligands (Equation [1]; Kd and n); format: binding; details: order of magnitude of Kd (Example 6)
pKd: −log10 of the molar value.
metric-name: pKd

Request: # pKd lookup, item Cc1c(C)c2c(c(C)c1O)CCC(C)(CCCC(C)CCCC(C)CCCC(C)C)O2 (stereo not drawn) [Vitamin E, α-tocopherol]
Response: ~9.00

---

Molecular target: β-lactoglobulin (β-Lg) (Bos taurus, UniProt P02754)
Construct: Isolation of β-Lg from Whey; from tissue; host or cells: whey (milk), purified by bioselective adsorption on N-retinyl-Celite
Sequence (P02754 17-178): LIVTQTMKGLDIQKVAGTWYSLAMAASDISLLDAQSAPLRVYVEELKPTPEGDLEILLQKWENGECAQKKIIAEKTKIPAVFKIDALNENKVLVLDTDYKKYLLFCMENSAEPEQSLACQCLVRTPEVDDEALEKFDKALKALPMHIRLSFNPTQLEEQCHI
Experiment: Fluorescence titration of β-Lg with ligands (Equation [1]; Kd and n)
Format: binding
Settings: read-out: order of magnitude of Kd (Example 6)
metric-name: Kd

Request: For β-lactoglobulin (β-Lg) (Bos taurus, UniProt P02754), provide Kd of CC1=C(C/C=C(\C)CCC[C@H](C)CCC[C@H](C)CCCC(C)C)C(=O)c2ccccc2C1=O please.
Response: ~1 nM

---

target: β-lactoglobulin (β-Lg) (Bos taurus, UniProt P02754); construct: Isolation of β-Lg from Whey; from tissue; host or cells: whey (milk), purified by bioselective adsorption on N-retinyl-Celite; experiment: Fluorescence titration of β-Lg with ligands (Equation [1]; Kd and n); format: binding; settings: Kd values (Example 6)
metric-name: pKd
Reminder that pKd means the negative base-10 logarithm of the concentration expressed in mol/L.

Request: State its pKd on β-lactoglobulin (β-Lg) (Bos taurus, UniProt P02754): Cc1c(C)c2c(c(C)c1O)CCC(C)(CCCC(C)CCCC(C)CCCC(C)C)O2 (stereo not shown)
Response: 7.04
